# Tested Target: T1, SALL4 ZFC4 R900W (Mus musculus, UniProt Q8BX22 870-940, R900W)
# T1 sequence: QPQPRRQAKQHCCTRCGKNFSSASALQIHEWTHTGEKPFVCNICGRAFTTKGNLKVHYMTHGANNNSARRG
# Method: EMSA; apparent; poly(dI-dC); EMSA: 68.1 nM DY681-dsDNA, 20 mM HEPES pH 7.5, 150 mM K acetate, 5 mM Mg acetate, 10 ng/ul poly(dI-dC), 30 min on ice; 4% native PAGE, 0.5x TBE, 4 C
# Run Parameters: protein: recombinant; tags: His6-GST removed with 3C protease; label: DY681

{"Binder": "EMSA AT-rich probe (dsDNA) DNA 1: AAAAAATATTAAAAA DNA 2: TTTTTAATATTTTTT", "Kd [µM]": 23}

Origin of measurements: paper PMC9838217
